TGT: full length spike (S) protein of SARS-CoV-2 (SARS-CoV-2, UniProt P0DTC2 14-1273)
EXPERIMENT_NOTES: cell-based or functional assay
Give Neutralizing activity (%) Mean at 5.555555 µg/ml for every item shown.
Give bare numbers, in %.

{"BINDER": "P2B-2F6 (antibody, V domains shown) VH: QVQLQESGPGLVKPSETLSLTCTVSGYSISSGYYWGWIRQPPGKGLEWIGSIYHSGSTYYNPSLKTRVTISVDTSKNQFSLKLSSVTAADTAVYYCARAVVGIVVVPAAGRRAFDIWGQGTMVTVSS VL: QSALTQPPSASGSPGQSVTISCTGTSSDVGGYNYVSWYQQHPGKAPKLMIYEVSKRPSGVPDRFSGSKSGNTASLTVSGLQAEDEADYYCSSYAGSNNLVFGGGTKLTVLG", "RESULT_UNIT": "%", "REPORTED_RESULT": 93.5}
{"BINDER": "P2B-2G4 (antibody, V domains shown) VH: QVQLVESGGGVVQPGRSLRLSCAASGFTFSSYGMHWVRQAPGKGLEWVAVIWYDGSNKYYADSVKGRFTISRDNSKNTLYLQMNSLRAEDTAVYYCARGAAMVWLDYWGQGTLVTVSS VL: QSALTQPRSVSGSPGQSVTISCTGTSSDVGGYNYVSWYQQHPGKAPKLMIYDVSKRPSGVPDRFSGSKSGNTASLTISGLQAEDEADYYCCSYAGSYTFVVFGGGTKLTVLG", "RESULT_UNIT": "%", "REPORTED_RESULT": 46.4}

Field: next binder
Documented Neutralizing activity (%) Mean at 5.555555 µg/ml of P2A-1A8 (antibody, V domains shown) VH: EVQLVESGGDLVQPGRSLRLSCAASGFAFDDYAMHWVRQAPGKGLEWVSGSTWNSGTIAYADSVKGRFTISRDNAKKSLYLQMNSLRTEDTALYYCAKLGGYSDYDYPRPGDHYYGLDVWGQGTTVTVSS VL: QSALTQPASVSGSPGQSITISCTGTSSDVGSYNLVSWYQQHPGKVPKLLIYDVNKRPSGISNRFSGSKSGNTASLTISGLQAEDEADYYCRSYTDSNTYVFGTGTKVTVLG : 44.8

Ref: patent US20210292392A1
